# Test system: Monilinia laxa
# METHOD: Fungitoxicity against moderately fenhexamid resistant Monilinia laxa MF-6 assessed as reduction in mycelial growth measured at 25 degC after 4 days
# Type: functional, organism-based
# RECORDED_CONDITIONS: MF-6, 96 h
PARAMETER: log10(EC50) (log10 of the value in µg/mL)
Recorded EC50 (log10, µg/mL)

N#Cc1c[nH]cc1-c1cccc2c1OC(F)(F)O2: -1.70
CCCCCCCCCCCCCN1CC(C)OC(C)C1 (stereo not given): -0.22
COC(=O)Nc1nc2ccccc2[nH]1: -0.70

Fill blank: measured log10(EC50) of the compound `CCCN(CCOc1c(Cl)cc(Cl)cc1Cl)C(=O)n1ccnc1` is ____. -1.52

Repeat with `COC(=O)N(OC)c1ccccc1COc1ccn(-c2ccc(Cl)cc2)n1` -1.00

Repeat with CC(Cc1ccc(C(C)(C)C)cc1)CN1C[C@@H](C)O[C@@H](C)C1 (stereo not given in full) 0.00

====

# Tested on: Monilinia laxa
# METHOD: Fungitoxicity against moderately fenhexamid resistant Monilinia laxa MF-4 assessed as reduction in mycelial growth measured at 25 degC after 4 days
# Format: functional, organism-based
# RECORDED_CONDITIONS: MF-4, 96 h
PARAMETER: EC50 (µg/mL)
The figure you give is taken to be in µg/mL; do not add the unit.

CCCN(CCOc1c(Cl)cc(Cl)cc1Cl)C(=O)n1ccnc1 [PROCHLORAZ]: 0.04
N#Cc1c[nH]cc1-c1cccc2c1OC(F)(F)O2 [FLUDIOXONIL]: 0.03
CC(Cc1ccc(C(C)(C)C)cc1)CN1C[C@@H](C)O[C@@H](C)C1 (stereo not given in full) [FENPROPIMORPH]: 0.12
C[Si](Cn1cncn1)(c1ccc(F)cc1)c1ccc(F)cc1 [FLUSILAZOLE]: 0.1
CCCCCCCCCCCCCN1CC(C)OC(C)C1 (stereo not given) [TRIDEMORPH]: 0.12
COC(=O)N(OC)c1ccccc1COc1ccn(-c2ccc(Cl)cc2)n1 [PYRACLOSTROBIN]: 0.3
CC1(C(=O)Nc2ccc(O)c(Cl)c2Cl)CCCCC1 [FENHEXAMID]: 4
CCCN(CC)CC1COC2(CCC(C(C)(C)C)CC2)O1 (stereo not given) [SPIROXAMINE]: 2.9
COC(=O)Nc1nc2ccccc2[nH]1 [CARBENDAZIM]: 0.2

Fill blank: measured EC50 of the compound CC(C)NC(=O)N1CC(=O)N(c2cc(Cl)cc(Cl)c2)C1=O [IPRODIONE] is ____. 0.19

====

# System: Monilinia laxa
# METHOD: Fungitoxicity against moderately fenhexamid resistant Monilinia laxa MF-22 assessed as reduction in mycelial growth measured at 25 degC after 4 days
# Assay type: functional, organism-based
# RECORDED_CONDITIONS: MF-22, 96 h
Please use MET for EC50 under 0.2 µg/mL and NOT MET for everything else, ties included.

Example entries and their recorded answers appear below.
N#Cc1c[nH]cc1-c1cccc2c1OC(F)(F)O2: MET
CCCN(CC)CC1COC2(CCC(C(C)(C)C)CC2)O1 (centres undefined): NOT MET
CC1(C(=O)Nc2ccc(O)c(Cl)c2Cl)CCCCC1: NOT MET

Please indicate whether the reported EC50 of CCCCCCCCCCCCCN1CC(C)OC(C)C1 (centres undefined) is strictly below 0.2 µg/mL. MET

Repeat with CC(Cc1ccc(C(C)(C)C)cc1)CN1C[C@@H](C)O[C@@H](C)C1 (some centres undefined) NOT MET

Repeat with `CCCN(CCOc1c(Cl)cc(Cl)cc1Cl)C(=O)n1ccnc1` MET

Repeat with `C[Si](Cn1cncn1)(c1ccc(F)cc1)c1ccc(F)cc1` NOT MET

Repeat with `CC(C)NC(=O)N1CC(=O)N(c2cc(Cl)cc(Cl)c2)C1=O` NOT MET

====

# Test system: Monilinia laxa
# METHOD: Fungitoxicity against highly fenhexamid resistant Monilinia laxa MF-3 assessed as reduction in mycelial growth measured at 25 degC after 4 days
# Assay type: functional, organism-based
# RECORDED_CONDITIONS: MF-3, 96 h
PARAMETER: log10(EC50) (log10 of the value in µg/mL)
Recorded EC50 (log10, µg/mL)

These solved cases illustrate the format of a correct answer.
CCCN(CC)CC1COC2(CCC(C(C)(C)C)CC2)O1 (centres undefined): 0.56
C[Si](Cn1cncn1)(c1ccc(F)cc1)c1ccc(F)cc1: -1.00
CC(C)NC(=O)N1CC(=O)N(c2cc(Cl)cc(Cl)c2)C1=O: -0.60
CCCN(CCOc1c(Cl)cc(Cl)cc1Cl)C(=O)n1ccnc1: -1.70
CC(Cc1ccc(C(C)(C)C)cc1)CN1C[C@@H](C)O[C@@H](C)C1 (some centres undefined): -0.96

Fill blank: measured log10(EC50) of the compound `COC(=O)N(OC)c1ccccc1COc1ccn(-c2ccc(Cl)cc2)n1` is ____. -0.40

Repeat with `CC1(C(=O)Nc2ccc(O)c(Cl)c2Cl)CCCCC1` 0.87

Repeat with `N#Cc1c[nH]cc1-c1cccc2c1OC(F)(F)O2` -2.00

Repeat with CCCCCCCCCCCCCN1CC(C)OC(C)C1 (centres undefined) -0.96

====

# Tested on: Monilinia laxa
# METHOD: Fungitoxicity against moderately fenhexamid resistant Monilinia laxa MF-7 assessed as reduction in mycelial growth measured at 25 degC after 4 days
# Format: functional, organism-based
# RECORDED_CONDITIONS: MF-7, 96 h
PARAMETER: EC50
Please provide the amount together with its unit, number first.

C[Si](Cn1cncn1)(c1ccc(F)cc1)c1ccc(F)cc1: 0.2 µg/mL
N#Cc1c[nH]cc1-c1cccc2c1OC(F)(F)O2: 0.01 µg/mL
CCCCCCCCCCCCCN1CC(C)OC(C)C1 (stereo not given): 0.09 µg/mL

Query the reported EC50 for Monilinia laxa; item: `CC(C)NC(=O)N1CC(=O)N(c2cc(Cl)cc(Cl)c2)C1=O` 0.23 µg/mL

Repeat with `COC(=O)N(OC)c1ccccc1COc1ccn(-c2ccc(Cl)cc2)n1` 0.4 µg/mL

Repeat with CCCN(CC)CC1COC2(CCC(C(C)(C)C)CC2)O1 (stereo not given) 3.5 µg/mL

Repeat with `COC(=O)Nc1nc2ccccc2[nH]1` 0.3 µg/mL

Repeat with CC(Cc1ccc(C(C)(C)C)cc1)CN1C[C@@H](C)O[C@@H](C)C1 (stereo not given in full) 0.1 µg/mL

Repeat with `CCCN(CCOc1c(Cl)cc(Cl)cc1Cl)C(=O)n1ccnc1` 0.08 µg/mL

Repeat with `CC1(C(=O)Nc2ccc(O)c(Cl)c2Cl)CCCCC1` 2.3 µg/mL

====

// reported log10(EC50) for each item listed
# System: Monilinia laxa
# METHOD: Fungitoxicity against moderately fenhexamid resistant Monilinia laxa MF-8 assessed as reduction in mycelial growth measured at 25 degC after 4 days
# Format: functional, organism-based
# RECORDED_CONDITIONS: MF-8, 96 h
Recorded EC50 (log10, µg/mL)

These solved cases illustrate the format of a correct answer.
COC(=O)N(OC)c1ccccc1COc1ccn(-c2ccc(Cl)cc2)n1 [PYRACLOSTROBIN]: -0.40
CC1(C(=O)Nc2ccc(O)c(Cl)c2Cl)CCCCC1 [FENHEXAMID]: 0.76
N#Cc1c[nH]cc1-c1cccc2c1OC(F)(F)O2 [FLUDIOXONIL]: -1.30
CC(C)NC(=O)N1CC(=O)N(c2cc(Cl)cc(Cl)c2)C1=O [IPRODIONE]: -0.46
CCCN(CCOc1c(Cl)cc(Cl)cc1Cl)C(=O)n1ccnc1 [PROCHLORAZ]: -1.70

Query molecule follows.
Fill blank: measured log10(EC50) of the molecule CC(Cc1ccc(C(C)(C)C)cc1)CN1C[C@@H](C)O[C@@H](C)C1 (some centres undefined) [FENPROPIMORPH] is ____. -0.52

====

# Tested on: Monilinia laxa
# METHOD: Fungitoxicity against moderately fenhexamid resistant Monilinia laxa MF-6 assessed as reduction in mycelial growth measured at 25 degC after 4 days
# Type: functional, organism-based
# RECORDED_CONDITIONS: MF-6, 96 h
// reported EC50 for each item listed
The figure you give is taken to be in µg/mL; do not add the unit.

These solved cases illustrate the format of a correct answer.
CCCN(CC)CC1COC2(CCC(C(C)(C)C)CC2)O1 (centres undefined) [SPIROXAMINE]: 12
CC(C)NC(=O)N1CC(=O)N(c2cc(Cl)cc(Cl)c2)C1=O [IPRODIONE]: 0.32

Fill blank: measured EC50 of the compound CC1(C(=O)Nc2ccc(O)c(Cl)c2Cl)CCCCC1 [FENHEXAMID] is ____. 5.8

Repeat with C[Si](Cn1cncn1)(c1ccc(F)cc1)c1ccc(F)cc1 [FLUSILAZOLE] 0.3

====

# Tested on: Monilinia laxa
# METHOD: Fungitoxicity against moderately fenhexamid resistant Monilinia laxa MF-8 assessed as reduction in mycelial growth measured at 25 degC after 4 days
# Format: functional, organism-based
# RECORDED_CONDITIONS: MF-8, 96 h
PARAMETER: EC50 (µg/mL)
The figure you give is taken to be in µg/mL; do not add the unit.

These solved cases illustrate the format of a correct answer.
CCCCCCCCCCCCCN1CC(C)OC(C)C1 (stereo not drawn): 0.4
CCCN(CC)CC1COC2(CCC(C(C)(C)C)CC2)O1 (stereo not drawn): 3.2

Fill blank: measured EC50 of the molecule `C[Si](Cn1cncn1)(c1ccc(F)cc1)c1ccc(F)cc1` is ____. 0.2
